Recorded values, source patent US9181239B2.

Here, each record is paired with measured log10 of Ki data.
# targetSystem: Wee1 kinase (Homo sapiens)
# Construct: purchased Carnabio 05-177
# Sequence (P30291 whole entry): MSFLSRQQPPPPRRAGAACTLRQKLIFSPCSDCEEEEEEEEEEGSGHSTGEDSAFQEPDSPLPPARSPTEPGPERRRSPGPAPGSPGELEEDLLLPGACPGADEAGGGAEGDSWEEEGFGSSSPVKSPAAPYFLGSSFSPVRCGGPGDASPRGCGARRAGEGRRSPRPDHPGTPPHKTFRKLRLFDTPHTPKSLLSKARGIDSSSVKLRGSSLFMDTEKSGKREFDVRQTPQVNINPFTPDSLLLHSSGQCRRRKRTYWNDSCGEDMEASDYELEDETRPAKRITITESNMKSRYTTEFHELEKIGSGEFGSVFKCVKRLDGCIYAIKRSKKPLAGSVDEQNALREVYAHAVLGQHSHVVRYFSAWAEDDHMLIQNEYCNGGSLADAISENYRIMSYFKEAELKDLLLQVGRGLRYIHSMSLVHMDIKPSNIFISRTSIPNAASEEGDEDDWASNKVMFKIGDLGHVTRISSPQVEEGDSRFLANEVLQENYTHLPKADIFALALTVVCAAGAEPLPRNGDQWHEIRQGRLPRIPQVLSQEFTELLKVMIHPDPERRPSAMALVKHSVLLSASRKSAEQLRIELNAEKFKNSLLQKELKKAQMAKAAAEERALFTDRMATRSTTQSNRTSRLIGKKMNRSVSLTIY
# assayComment: Wee1 time-resolved fluorescence equilibrium binding assay (probe displacement)
# cond: GST-tagged-Wee1 kinase 2 nM, fluorescent probe 300 nM, 1 hour incubation; read-out: Wee-1 binding (Ki nM)
# Protocol: Wee1 kinase was assayed using a time-resolved fluorescence equilibrium binding assay monitoring displacement of a rapidly reversible Oregon Green-labeled ATP-competitive kinase probe (N-(2-(2-(2-(4-(4-(5-chloro-4-(2-(1-hydroxycyclobutyl)thiazol-5-yl)-1H-pyrrolo[2,3-b]pyridin-2-yl)phenyl)piperazin-1-yl)ethoxy)ethoxy)ethyl)-2′,7′-difluoro-3′,6′-dihydroxy-3-oxo-3H-spiro[isobenzofuran-1,9′-xanthene]-5-carboxamide) by competitive Wee1 inhibitors.
Hey, these are logged values: log10 of Ki, nM being the unit before logging.

Consider the compound shown here: CN1Cc2cc(Nc3ncc4c(=O)c(-c5c(Cl)cccc5Cl)cn(C)c4n3)ccc2C2(CC2)C1 [Example 14] What is its recorded log10 of Ki? -0.52

Recorded log10 of Ki of Cn1cc(-c2c(F)cccc2Cl)c(=O)c2cnc(Nc3ccc4c(c3)CNCC4)nc21 [Example 74] , please. 0.08

// query log10 of Ki value for entry CN(C)C1CCN(c2ncc(Nc3ncc4c(=O)c(-c5c(Cl)cccc5Cl)cn(C)c4n3)cn2)CC1 [Example 62] 0.48

Query: log10 of Ki; subject: CN1CCC(c2ccc(Nc3ncc4c(=O)c(-c5c(Cl)cccc5Cl)cn(C)c4n3)cc2)CC1 [Example 50] -0.05

Please look up its log10 of Ki: CN1CCN(c2ccc(Nc3ncc4c(=O)c(-c5c(Cl)cccc5Cl)cn(C(C)(C)C)c4n3)cc2)CC1 [Example 28] 1.28

Form field: reported log10 of Ki of CN1CCC(Nc2ccc(Nc3ncc4c(=O)c(-c5c(Cl)cccc5Cl)cn(C)c4n3)cc2)C1 (centres unmarked) [Example 67] -0.30

# input compound: CN1Cc2cc(Nc3ncc4c(=O)c(-c5c(F)cccc5Cl)cn(C)c4n3)ccc2C1(C)C [Example 70] ; wanted: its log10 of Ki -0.70

Which log10 of Ki is reported for this compound? CN1CCN(c2ccc(Nc3ncc4c(=O)c(-c5c(F)cccc5Cl)cn(C5CC5)c4n3)cc2)CC1 [Example 37] 0.38

###

# targetSystem: Wee1 kinase (Homo sapiens)
# Construct: purchased Carnabio 05-177
# assayComment: Wee1 time-resolved fluorescence equilibrium binding assay (probe displacement)
# cond: GST-tagged-Wee1 kinase 2 nM, fluorescent probe 300 nM, 1 hour incubation; read-out: Wee-1 binding (Ki nM)
resultType: Ki (nM)
# number only, unit nM dropped from output

> print(dat)
                                   molecule  reported
1  Cn1cc(-c2c(Cl)cccc2Cl)c(=O)c2cnc(Nc3ccc4c(c3)CNCC4(C)C)nc21       0.6
2  CN1CCN(c2ccc(Nc3ncc4c(=O)c(-c5ccccc5Cl)cn(-c5ccccc5)c4n3)cc2)CC1       2.4
3  CN1Cc2cc(Nc3ncc4c(=O)c(-c5c(F)cccc5Cl)cn(C)c4n3)ccc2C2(CC2)C1       0.4
4  Cn1cc(-c2c(Cl)cccc2Cl)c(=O)c2cnc(Nc3ccc(N[C@H]4CCNC4)cc3)nc21       0.4
5  CN1CCN(c2ccc(Nc3ncc4c(=O)c(-c5c(Cl)cccc5Cl)c5n(c4n3)CCC5)cc2)CC1       5.7

What Ki value was documented for this molecule, "CN1CCC(Nc2ccc(Nc3ncc4c(=O)c(-c5c(Cl)cccc5Cl)cn(C)c4n3)cc2)CC1" ? 0.6

Name the recorded Ki for "CN(C)CCCN1CCN(c2ccc(Nc3ncc4c(=O)c(-c5c(Cl)cccc5Cl)cn(C)c4n3)cc2)CC1" . 1.2

Recorded Ki of "CN1Cc2cc(Nc3ncc4c(=O)c(-c5c(F)cccc5Cl)cn(C5CC5)c4n3)ccc2C2(CC2)C1" , please. 1.3

For the molecule shown here, CN(C)C1CCN(C2Cc3ccc(Nc4ncc5c(=O)c(-c6c(Cl)cccc6Cl)cn(C)c5n4)cc3C2)CC1 (stereo not shown) , give the reported Ki. 0.5

Suppose we examine the molecule "CN1CCc2cc(Nc3ncc4c(=O)c(-c5c(Cl)cccc5Cl)cn(C)c4n3)ccc2C1" ; what Ki value has been reported? 0.3

What value of Ki has been reported for the following molecule? "CC(C)n1cc(-c2c(Cl)cccc2Cl)c(=O)c2cnc(Nc3ccc(N4CCN(C)CC4)cc3)nc21" 1.2
